System: Staphylococcus aureus
Test: Antibacterial activity against Staphylococcus aureus Smith by two-fold agar dilution method
Assay type: functional
Documented log10 of MIC across a set of compounds
quantity_kind: log10 of MIC (log10 of the value in µg/mL)

compound=C/C(=N\N1CCN(CCO)CC1)C1=C(O)[C@H](N)[C@@H]2Cc3c(c(O)c4c(O)c(C)ccc4c3C)C(=O)[C@]2(O)C1=O.Cl observed_measurement=0.79
compound=C/C(=N\NC(=O)Cc1ccccc1)C1=C(O)[C@H](N)[C@@H]2Cc3c(c(O)c4c(O)c(C)ccc4c3C)C(=O)[C@]2(O)C1=O.Cl observed_measurement=1.40
compound=C/C(=N\c1ccccc1)C1=C(O)[C@H](N)[C@@H]2Cc3c(c(O)c4c(O)c(C)ccc4c3C)C(=O)[C@]2(O)C1=O.Cl observed_measurement=1.10
compound=C/C(=N\c1ccc(C(=O)O)cc1)C1=C(O)[C@H](N)[C@@H]2Cc3c(c(O)c4c(O)c(C)ccc4c3C)C(=O)[C@]2(O)C1=O.Cl observed_measurement=0.49
compound=CC(=O)NS(=O)(=O)c1ccc(/N=C(\C)C2=C(O)[C@H](N)[C@@H]3Cc4c(c(O)c5c(O)c(C)ccc5c4C)C(=O)[C@]3(O)C2=O)cc1.Cl observed_measurement=0.49
compound=C/C(=N\NC(=N)N)C1=C(O)[C@H](N)[C@@H]2Cc3c(c(O)c4c(O)c(C)ccc4c3C)C(=O)[C@]2(O)C1=O.Cl observed_measurement=1.70
compound=C/C(=N\c1ccc(S(N)(=O)=O)cc1)C1=C(O)[C@H](N)[C@@H]2Cc3c(c(O)c4c(O)c(C)ccc4c3C)C(=O)[C@]2(O)C1=O.Cl observed_measurement=0.49
compound=C=CCNC(=O)N/N=C(\C)C1=C(O)[C@H](N)[C@@H]2Cc3c(c(O)c4c(O)c(C)ccc4c3C)C(=O)[C@]2(O)C1=O.Cl observed_measurement=1.40
compound=C/C(=N\NC(=O)Nc1ccccc1Cl)C1=C(O)[C@H](N)[C@@H]2Cc3c(c(O)c4c(O)c(C)ccc4c3C)C(=O)[C@]2(O)C1=O.Cl observed_measurement=1.70
compound="C/C(=N\\NC(=O)c1ccncc1)C1=C(O)[C@H](N)[C@@H]2Cc3c(c(O)c4c(O)c(C)ccc4c3C)C(=O)[C@]2(O)C1=O.Cl (stereo in doubt)" observed_measurement=1.70
compound=C/C(=N\c1ccc(F)cc1)C1=C(O)[C@H](N)[C@@H]2Cc3c(c(O)c4c(O)c(C)ccc4c3C)C(=O)[C@]2(O)C1=O.Cl observed_measurement=0.79
compound=C/C(=N\N(C)C)C1=C(O)[C@H](N)[C@@H]2Cc3c(c(O)c4c(O)c(C)ccc4c3C)C(=O)[C@]2(O)C1=O.Cl observed_measurement=1.10
compound=C/C(=N\N1CCOC1=O)C1=C(O)[C@H](N)[C@@H]2Cc3c(c(O)c4c(O)c(C)ccc4c3C)C(=O)[C@]2(O)C1=O.Cl observed_measurement=1.40
